Target: AAV9 (adeno-associated virus serotype 9)
Test: SPR, AAV on CM5 chip
Endpoint label: kon (M⁻¹ s⁻¹)
A number alone suffices; assume M⁻¹ s⁻¹.

Give me measured kon, please, for this binder: A4-C9 (bispecific antibody) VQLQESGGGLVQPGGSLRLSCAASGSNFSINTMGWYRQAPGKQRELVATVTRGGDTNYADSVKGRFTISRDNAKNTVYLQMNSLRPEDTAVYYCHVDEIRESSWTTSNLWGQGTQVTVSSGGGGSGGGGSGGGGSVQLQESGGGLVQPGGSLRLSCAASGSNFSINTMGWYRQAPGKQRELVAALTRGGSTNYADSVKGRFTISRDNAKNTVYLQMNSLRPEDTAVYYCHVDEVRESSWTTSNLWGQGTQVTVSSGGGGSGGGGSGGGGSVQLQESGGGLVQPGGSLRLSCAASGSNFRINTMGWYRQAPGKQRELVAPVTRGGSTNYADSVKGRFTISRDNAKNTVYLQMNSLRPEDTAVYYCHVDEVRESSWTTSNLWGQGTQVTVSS 194000
